In this section we review reported RP-LC retention time values for a set of compounds.
- protocolDetails: gradient 5% acetonitrile 3 min, to 50% in 2 min, to 85% in 15 min, held 3 min, 100 µL/min
- statedConditions: column: Zorbax Extend-C18 2.1 x 50 mm; eluents: water / acetonitrile, 0.1% formic acid
Unit s implied. Number only.

For orientation, consider the following solved cases.
CC1(C)CC(=O)c2cn(-c3ccccc3)c(=O)c(C(=O)Nc3cccc(C#N)c3)c2C1: 1030
COc1ccc(NS(=O)(=O)c2cc3n(c2)CCN(C)C3=O)cc1: 657
Cc1nc(C)c(C(=O)N2CCCC(n3c(C)cnc3C3CCC3)C2)s1 (stereo unspecified): 591

Let's switch to this compound now.
RP-LC retention time in this record for CN(C)c1ccc2c(c1)CN(C(=O)c1ccsc1)CCO2 : 586
